Test system: HeLa
Test: Antiproliferative activity against human HeLa cells after 48 hrs by MTT assay
Assay type: functional, cell-based
OBSERVATION TYPE: IC50 (µM)

item_smiles=O=C(NCCc1c[nH]c2ccc(F)cc12)c1cc(Cl)ccc1O observation_type=IC50 bound_operator=> observed_measurement=100
item_smiles=O=C(NCCc1c[nH]c2ccc(Cl)cc12)c1cc(Br)ccc1O observation_type=IC50 bound_operator== observed_measurement=85
item_smiles=O=C(NCCc1c[nH]c2ccc(Br)cc12)c1ccc(Cl)cc1O observation_type=IC50 bound_operator== observed_measurement=71
item_smiles=Cc1cccc(C(=O)NCCc2c[nH]c3ccc(F)cc23)c1O observation_type=IC50 bound_operator=> observed_measurement=100
item_smiles=Cc1ccc2[nH]cc(CCNC(=O)c3cc(Br)ccc3O)c2c1 observation_type=IC50 bound_operator=> observed_measurement=100
item_smiles=Cc1ccc(C(=O)NCCc2c[nH]c3ccc(C)cc23)c(O)c1 observation_type=IC50 bound_operator=> observed_measurement=100
item_smiles=Cc1ccc2[nH]cc(CCNC(=O)c3cccc(C)c3O)c2c1 observation_type=IC50 bound_operator== observed_measurement=61
item_smiles=COc1ccc2[nH]cc(CCNC(=O)c3cccc(C)c3O)c2c1 observation_type=IC50 bound_operator== observed_measurement=42
item_smiles=O=C(NCCc1c[nH]c2ccccc12)c1ccc(Cl)cc1O observation_type=IC50 bound_operator=> observed_measurement=100
item_smiles=Cc1ccc2[nH]cc(CCNC(=O)c3cc(Cl)ccc3O)c2c1 observation_type=IC50 bound_operator=> observed_measurement=100
item_smiles=Cc1ccc(C(=O)NCCc2c[nH]c3ccccc23)c(O)c1 observation_type=IC50 bound_operator=> observed_measurement=100
item_smiles=O=c1[nH]cc(F)c(=O)[nH]1 observation_type=IC50 bound_operator== observed_measurement=50
item_smiles=O=C(NCCc1c[nH]c2ccc(F)cc12)c1ccc(Cl)cc1O observation_type=IC50 bound_operator=> observed_measurement=100
item_smiles=Cc1ccc2[nH]cc(CCNC(=O)c3ccccc3O)c2c1 observation_type=IC50 bound_operator=> observed_measurement=100
item_smiles=COc1ccc2[nH]cc(CCNC(=O)c3cc(Br)ccc3O)c2c1 observation_type=IC50 bound_operator== observed_measurement=74
